Origin of the recorded values: the supplement of paper PMC10567573

B1: TMEM192 (parent)
chain: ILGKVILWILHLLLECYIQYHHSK

Variants of: B1
Test: protein stability index of a GFP-peptide fusion (GPS, HEK-293T) (PSI 1-6); higher = more stable;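 further: lentivirally expressed fusions sorted by FACS into six bins by GFP to DsRed ratio, PSI derived from sequencing read proportions per bin multiplied by bin number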
Details: c terminus: a fixed tail appended
Value Type: protein stability index
Reply with just the number.

{"Biopolymer Sequence": "ILGKVILWILHLLLDCYIQYHHSK [E15D]", "protein stability index": 2.1}

So what's the measured protein stability index for this one? ILGKVILLILHLLLECYIQYHHSK [W8L]
2.26

So what's the measured protein stability index for this one? ILGKVILWILHLLLGCYIQYHHSK [E15G]
2.81

So what's the measured protein stability index for this one? ILGKVILWGLHLLLECYIQYHHSK [I9G]
1.96

So what's the measured protein stability index for this one? ILGKVILWILHLLLECYIKYHHSK [Q19K]
2.25

So what's the measured protein stability index for this one? ILGKVILWILHLLLECYMQYHHSK [I18M]
2.03

So what's the measured protein stability index for this one? ILGKVILWILHFLLECYIQYHHSK [L12F]
2.47
